The measurements presented in this section are drawn from patent US20250230147A1.

The following compounds are listed with their measured (fold-selectivity) values.
# target under test: c-Cbl (Homo sapiens (Human), UniProt P22681)
# Sequence (P22681 47-435): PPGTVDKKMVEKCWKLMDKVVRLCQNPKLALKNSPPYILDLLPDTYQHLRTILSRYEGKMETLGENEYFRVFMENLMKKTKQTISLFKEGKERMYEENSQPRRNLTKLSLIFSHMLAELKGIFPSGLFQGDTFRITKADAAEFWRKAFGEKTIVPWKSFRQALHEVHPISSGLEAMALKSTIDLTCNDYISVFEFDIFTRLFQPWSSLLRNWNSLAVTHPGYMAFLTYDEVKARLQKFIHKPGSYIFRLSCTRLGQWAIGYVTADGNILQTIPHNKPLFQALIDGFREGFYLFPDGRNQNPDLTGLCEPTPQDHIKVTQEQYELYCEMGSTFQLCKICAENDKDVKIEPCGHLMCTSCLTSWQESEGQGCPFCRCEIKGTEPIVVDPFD
# assay info: C-Cbl LCK Ub TR-FRET assay (c-cbl Lck HTRF)
# Type: biochemical
# condition set: C-cbl Lck HTRF IC50 relative to Cbl-b Lck HTRF IC50

structure smiles: C#Cc1cccc2c1CN(c1cccc(C3([C@@H](F)c4nncn4C)COC3)c1)C2=O
measure unit: x
(fold-selectivity): 1.7

structure smiles: COC1(C)CN(Cc2cc3c(c(C(F)(F)F)c2)CN(c2cccc(C4([C@H](F)c5nncn5C)COC4)c2)C3=O)C1
measure unit: x
(fold-selectivity): 1.9

structure smiles: Cn1cnnc1[C@@H](F)C1(c2cccc(N3Cc4c(cc(CN5CCC[C@H]5CO)cc4C(F)(F)F)C3=O)c2)COC1
measure unit: x
(fold-selectivity): 1.1

structure smiles: Cn1cnnc1[C@@H](F)C1(c2cccc(N3Cc4c(cc(CN5CC6(CC6)C5)cc4C(F)(F)F)C3=O)c2)COC1
measure unit: x
(fold-selectivity): 1.6

structure smiles: Cn1cnnc1[C@@H](F)C1(c2cccc(N3Cc4c(cc(CN5CC(CCO)C5)cc4C(F)(F)F)C3=O)c2)COC1
measure unit: x
(fold-selectivity): 2.0

====

# target under test: c-Cbl (Homo sapiens (Human), UniProt P22681)
# assay info: C-Cbl LCK Ub TR-FRET assay (c-cbl Lck HTRF)
# Format: biochemical
pIC50: −log10 of the molar value.
# pIC50 per record follows

structure smiles: Cn1cnnc1[C@@H](F)C1(c2cccc(N3Cc4c(cc(CN5CCCC5)cc4C(F)(F)F)C3=O)c2)CC(F)(F)C1
pIC50: 6.82
--
structure smiles: Cn1cnnc1CC1(c2cc(NCC3CCS(=O)(=O)CC3)nc(N3Cc4c(cc(CNC5(C)CCC5)cc4C(F)(F)F)C3=O)c2)CCC1
pIC50: 6.32
--
structure smiles: CC(C)[C@H]1CN(CC(F)(F)F)CCN1Cc1cc2c(c(C(F)(F)F)c1)CN(c1cccc(C3([C@H](F)c4nncn4C)COC3)c1)C2=O
pIC50: 5.52
--
structure smiles: CC(C)[C@H]1CN(CC(F)(F)F)CCN1Cc1cc2c(c(C(F)(F)F)c1)CN(c1cccc(C3([C@@H](F)c4nncn4C)COC3)c1)C2=O
pIC50: 6.40
--
structure smiles: Cn1cnnc1[C@H](F)C1(c2cccc(N3Cc4c(cc(CN5CC(C(F)F)C5)cc4C(F)(F)F)C3=O)c2)COC1
pIC50: 7.24
--
structure smiles: CCOc1cc(C2(Cc3nncn3C)CCC2)cc(N2Cc3c(cc(CN4CCN(C)C[C@@H]4C(C)C)cc3C(F)(F)F)C2=O)n1
pIC50: 8.27
--
structure smiles: CCc1cccc2c1CN(c1cccc(C3([C@@H](F)c4nncn4C)COC3)c1)C2=O
pIC50: 5.72
--
structure smiles: CC(C)[C@H]1CNCCN1Cc1cc2c(c(C(F)(F)F)c1)CN(c1cccc(C3([C@H](F)c4nncn4C)CCC3)c1)C2=O
pIC50: 7.70
--
structure smiles: Cn1cnnc1CC1(c2cccc(N3Cc4c(cc(CNC5(C)CCC5)cc4C(F)(F)F)C3=O)c2)CC(F)(F)C1
pIC50: 8.10
--
structure smiles: COC[C@H]1CCCN1Cc1cc2c(c(C(F)(F)F)c1)CN(c1cccc(C3([C@@H](F)c4nncn4C)COC3)c1)C2=O
pIC50: 6.62
--
structure smiles: Cn1cnnc1CC1(c2cc(Cc3ccccc3)nc(N3Cc4c(cc(CNC5(C)CCC5)cc4C(F)(F)F)C3=O)c2)CCC1
pIC50: 7.80
--
structure smiles: CC(C)[C@H]1CN(C)CCN1Cc1cc2c(c(C(F)(F)F)c1)CN(c1cccc(C3([C@@H](F)c4nncn4C4CCCCC4)COC3)c1)C2=O
pIC50: 5.21
--
structure smiles: CC(C)C1(O)CN(Cc2cc3c(c(C(F)(F)F)c2)CN(c2cccc(C4([C@H](F)c5nncn5C)COC4)c2)C3=O)C1
pIC50: 6.43
